# assay_details: in vivo
# Parameters: species or system male CD-1 mice
# condition_parameters: male, CD-1, mouse, iv, 1 mg/kg
# Protocol: 2.7. Pharmacokinetic Study (PK) Pharmacokinetic study after intravenous (i.v.) and subcutaneous (s.c.) administration was performed for the compounds of Ex. 17, Ex. 20, Ex. 25, Ex. 26, Ex. 28, and Ex. 29. […] In order to perform PK analysis pooled plasma data (n=3 mice) was used. PK parameters were calculated by WinNonLin™ software version 5.2.1 (Pharsight—A Certara™ Company, Mountain View, Calif. 94041 USA) using non-compartmental analysis with a linear up/log down trapezoidal calculation method. […]
Bridge positions count the residues as written; N and C are the ends. Square brackets hold non-standard residues; d marks the D form. Peptide text beside a SMILES is read from it. * marks the point of attachment. Lauroyl = CCCCCCCCCCCC(=O)*; Dab = NCC[C@H](N)C(=O)O
reported_endpoint: AUC(0-inf) (ng·h/mL)
# unit: ng·h/mL | format: bare number

# lookup: AUC(0-inf) of CCCCCCCCCCCC(=O)NCCCC[C@@H]1NC(=O)[C@H](Cc2ccc(O)cc2)NC(=O)[C@@H]2CSSC[C@H](NC(=O)[C@H](C)NC(=O)[C@H](Cc3c[nH]cn3)NC(=O)[C@H](Cc3ccc(O)cc3)NC(=O)[C@@H]3CCCN3C(=O)[C@H]3CCCN3C(=O)[C@H](CCCCN)NC1=O)C(=O)N[C@@H](CCCNC(=N)N)C(=O)N[C@@H](C)C(=O)N1CCC[C@@H]1C(=O)N[C@@H](CCN)C(=O)N[C@@H](CCCNC(=N)N)C(=O)N[C@@H](Cc1ccc(O)cc1)C(=O)N2 [Ex. 17] (cyclo(YHACRA[dP][Dab]RYCYK(Lauroyl)K[dP]P); disulfide 4-11)
2950
